method.notes: Acute toxicity in mice after single i.v. administration
Format: in vivo
test.context: mouse, in vivo, iv, read-out: LD50
parameter.measured: LD50 (mg/kg)
Field format: number, assumed mg/kg, no unit text.

Entry under review: CN[C@@H]1[C@H](O[C@@H]2O[C@H](CO)[C@@H](O)[C@H](OS(=O)(=O)O)[C@H]2O)[C@@H](O)[C@H](O[C@H]2c3cc(C)c(C(=O)N[C@H](C)C(=O)O)c(O)c3-c3c(cc4c(c3O)C(=O)c3cc(OC)cc(O)c3C4=O)[C@@H]2O)O[C@@H]1C . Reported LD50?
244

Entry under review: CN[C@@H]1[C@H](O[C@@H]2O[C@H](CO)[C@@H](O)[C@H](OS(=O)(=O)O)[C@H]2O)[C@@H](O)[C@H](O[C@H]2c3cc(C)c(C(=O)N[C@H](CO)C(=O)O)c(O)c3-c3c(cc4c(c3O)C(=O)c3cc(OC)cc(O)c3C4=O)[C@@H]2O)O[C@@H]1C . Reported LD50?
210
